target: thrombin, N-terminally 2PCA-labeled (Cy5, biotin) (UniProt P00734;P00734 328-363;364-622); test: single-molecule FRET (koff/kon); koff 0.7 +/- 0.1 s-1; kon 0.7 +/- 0.1 e8 M-1 s-1; main text gives error 0.8; smFRET: 1x PBS with 2.5 mM PCA, 0.155 U/ul PCD, 1 mM Trolox, 5 nM Cy3-aptamer, 23 +/- 1 C, pH not stated; QCM: PBS, flow 45 +/- 3 ul/min, thrombin 0.06-16.5 nM
pKd: −log10 of the molar value.
parameter: pKd

1) TTTTTTTGGTTGGTGTGGTTGG (structured_DNA) [HD1 single molecule exp.] ... 8.04
